Each entry below lists one item and its recorded protein stability index value.
B1: SPATS1 (parent)
chain: GRKKYDIDPRNGIPKLTPGDNPYM

Variants of: B1
assay explanation: protein stability index of a GFP-peptide fusion (GPS, HEK-293T) (PSI 1-6); higher = more stable;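 note: lentivirally expressed fusions sorted by FACS into six bins by GFP to DsRed ratio, PSI derived from sequencing read proportions per bin multiplied by bin number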
measurement parameters: c terminus: a fixed tail appended
assay endpoint: protein stability index

INSERT INTO assay_data (residue_change, assay_endpoint, readout_value) VALUES
  ('D6R', 'protein stability index', 3.11),
  ('P9S', 'protein stability index', 3.85),
  ('I13L', 'protein stability index', 3.64),
  ('R2Y', 'protein stability index', 3.15),
  ('R2G', 'protein stability index', 3.39),
  ('G1W', 'protein stability index', 2.78),
  ('R10C', 'protein stability index', 3.77),
  ('I7V', 'protein stability index', 3.83),
  ('M24H', 'protein stability index', 3.76),
  ('P14Y', 'protein stability index', 3.03),
  ('Y23W', 'protein stability index', 3.05),
  ('P18F', 'protein stability index', 1.9),
  ('P14N', 'protein stability index', 3.55),
  ('I13W', 'protein stability index', 3.44),
  ('I7F', 'protein stability index', 3.11),
  ('P14R', 'protein stability index', 2.99),
  ('K3W', 'protein stability index', 2.91),
  ('D20G', 'protein stability index', 3.3),
  ('Y5K', 'protein stability index', 4.23),
  ('N11V', 'protein stability index', 3.28),
  ('T17H', 'protein stability index', 3.34),
  ('K3R', 'protein stability index', 3.27),
  ('N21W', 'protein stability index', 2.63),
  ('Y23I', 'protein stability index', 3.72),
  ('P14C', 'protein stability index', 2.95),
  ('I13M', 'protein stability index', 3.36),
  ('I7Y', 'protein stability index', 3.45),
  ('N11R', 'protein stability index', 3.28),
  ('N11S', 'protein stability index', 3.6),
  ('R2H', 'protein stability index', 3.85),
  ('K15I', 'protein stability index', 3.69),
  ('I13S', 'protein stability index', 3.88),
  ('D6P', 'protein stability index', 3.49),
  ('G19W', 'protein stability index', 2.3),
  ('K3T', 'protein stability index', 3.73),
  ('N21A', 'protein stability index', 3.84),
  ('R2C', 'protein stability index', 3.3),
  ('Y5N', 'protein stability index', 3.93),
  ('G1P', 'protein stability index', 3.51),
  ('G12W', 'protein stability index', 2.83),
  ('D20M', 'protein stability index', 2.46),
  ('G1Y', 'protein stability index', 3.31),
  ('P22R', 'protein stability index', 4.22),
  ('P22F', 'protein stability index', 3.02),
  ('N11L', 'protein stability index', 3.06),
  ('P18Y', 'protein stability index', 2.46);

The reported measurements were obtained from the supplement of paper PMC10567573.
